tested on: PANC-10-05 (Pancreatic Carcinoma); assay: Bliss excess, mean over the matrix (fraction); higher = more synergy;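 note: after 72 h of two-drug dosing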
Measured metric: Bliss excess
One number for each entry.

Molecule	Target desc	Measured metric	Meas value
CC1(C)CCC(CN2CCN(c3ccc(C(=O)NS(=O)(=O)c4ccc(NCC5CCOCC5)c([N+](=O)[O-])c4)c(Oc4cnc5[nH]ccc5c4)c3)CC2)=C(c2ccc(Cl)cc2)C1 [Venetoclax] + C1CN(CCC1(C(=O)N[C@@H](CCO)C2=CC=C(C=C2)Cl)N)C3=NC=NC4=C3C=CN4 [Capivasertib] (first compound max 1 µM, 7x7, partner max 3 µM)	PANC-10-05 (Pancreatic Carcinoma)	Bliss excess	-0.0656

Now for a further molecule.
Entry C=CCn1c(=O)c2cnc(Nc3ccc(N4CCN(C)CC4)cc3)nc2n1-c1cccc(C(C)(C)O)n1 [AZD1775] + C[C@@H]1COCCN1C2=NC(=NC(=C2)C3(CC3)[S@](=N)(=O)C)C4=C5C=CNC5=NC=C4 [AZD6738] (first compound max 1 µM, partner max 10 µM) has what Bliss excess?
-0.0611

====

tested on: NCI-H2591 (Mesothelioma); assay: Bliss excess, mean over the matrix (fraction); higher = more synergy
Measured metric: Bliss excess
Answers are plain numbers.

Molecule	Measured metric	Meas value
CN(CCO)CC[C@H](CSc1ccccc1)Nc1ccc(S(=O)(=O)NC(=O)c2ccc(N3CCC([C@@H](O)c4ccccc4-c4ccc(Cl)cc4)CC3)cc2)cc1S(=O)(=O)C(F)(F)F [AZD4320] + CCN(CCO)CCCOc1ccc2c(Nc3cc(CC(=O)Nc4cccc(F)c4)[nH]n3)ncnc2c1 [AZD2811] (first compound max 1 µM, 7x7, partner max 1 µM)	Bliss excess	0.0015
COc1nnc2ccc(N3CCC(c4ccc(OCCN5CCN(C)C(=O)[C@H]5C)cc4)CC3)nn12 [AZD5153] + C[C@@H]1COCCN1C2=NC(=NC(=C2)C3(CC3)[S@](=N)(=O)C)C4=C5C=CNC5=NC=C4 [AZD6738] (first compound max 1 µM, 7x7, partner max 10 µM)	Bliss excess	0.0634

Bench note: what Bliss excess did CN(CCO)CC[C@H](CSc1ccccc1)Nc1ccc(S(=O)(=O)NC(=O)c2ccc(N3CCC([C@@H](O)c4ccccc4-c4ccc(Cl)cc4)CC3)cc2)cc1S(=O)(=O)C(F)(F)F [AZD4320] + Cc1cc2ncnn2cc1Nc1ncc2c(n1)n(C1CCOCC1)c(=O)n2C [AZD7648] (first compound max 1 µM, 7x7, partner max 10 µM) show?
-0.0445

====

tested on: NCI-H2141 (Small Cell Lung Carcinoma); experiment: Bliss excess, mean over the matrix (fraction); higher = more synergy
Answer each item with its documented Bliss excess.
Answers are plain numbers.

These recorded examples may help you get a feel for the data.
Molecule	Bliss excess
Cc1cc2ncnn2cc1Nc1ncc2c(n1)n(C1CCOCC1)c(=O)n2C [AZD7648] + CCN(CCO)CCCOc1ccc2c(Nc3cc(CC(=O)Nc4cccc(F)c4)[nH]n3)ncnc2c1 [AZD2811] (first compound max 10 µM, 7x7, partner max 1 µM)	0.0625
COc1cc2c(cc1OCCCCCOc1cc3c(cc1OC)C(=O)N1C=C(C)C[C@H]1C=N3)N=C[C@@H]1CC(C)=CN1C2=O [SG3199] + O=C(c1cc(Cc2n[nH]c(=O)c3ccccc23)ccc1F)N1CCN(C(=O)C2CC2)CC1 [Olaparib] (first compound max 0.001 µM, 7x7, partner max 10 µM)	-0.0682
CCN(CCO)CCCOc1ccc2c(Nc3cc(CC(=O)Nc4cccc(F)c4)[nH]n3)ncnc2c1 [AZD2811] + C[C@@H]1COCCN1C2=NC(=NC(=C2)C3(CC3)[S@](=N)(=O)C)C4=C5C=CNC5=NC=C4 [AZD6738] (first compound max 1 µM, 7x7, partner max 10 µM)	-0.0873

Next, consider the following molecule.
Look at this molecule and give its reported Bliss excess. CC1(C)CCC(CN2CCN(c3ccc(C(=O)NS(=O)(=O)c4ccc(NCC5CCOCC5)c([N+](=O)[O-])c4)c(Oc4cnc5[nH]ccc5c4)c3)CC2)=C(c2ccc(Cl)cc2)C1 [Venetoclax] + Cn1cnc2c(F)c(Nc3ccc(Br)cc3Cl)c(C(=O)NOCCO)cc21 [Selumetinib] (first compound max 1 µM, 7x7, partner max 3 µM)
-0.0303
